Where do the numbers come from? From PubChem BioAssay (EPA / NIEHS).

experiment: BSK_hDFCGF_SRB: Viability Assessment in the BioMAP Diversity Plus: hDFCGF Assay (AID 2283061); conditions: primary human foreskin fibroblasts;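 also: cells exposed to compound for 24 h before the read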
Activity calls are given as the source filed them. The calls were made as follows: active = hit-call score of the fitted dose curve at least 0.9, where 1 is the maximum; inactive = score below 0.9.
Classes to choose from: active, inactive

[[record]]
compound = "Cc1cc(C)c(O)c(C)c1"
category_label = "inactive"

[[record]]
compound = "c1ccc2c(c1)ccc1ccccc12"
category_label = "inactive"

[[record]]
compound = "CCCCCCCCCCCCCC[N+](C)(C)C"
category_label = "active"

[[record]]
compound = "CCOC(=O)CC(O)(CC(=O)OCC)C(=O)OCC"
category_label = "inactive"

[[record]]
compound = "Oc1cccc(O)c1"
category_label = "inactive"


Prompt: Query: recorded result category for CCc1nn(C2CCCCC2)c2cc(C3(C#N)CCC(C(=O)O)CC3)ccc12 (stereo not drawn) in this test
Completion: active

Prompt: Could you check what this test reported for CC#C[C@]1(O)CC[C@H]2[C@@H]3CCC4=CC(=O)CCC4=C3[C@@H](c3ccc(N(C)C)cc3)C[C@@]21C ?
Completion: active

Prompt: // outcome(item) with item = NC(=O)N(O)[C@@H]1C=C[C@H](Oc2cccc(Oc3ccc(F)cc3)c2)C1
Completion: inactive
